Cited source for all entries: paper PMC6321058

experiment: MTT cytotoxicity assay, Hep-G2; type: cell-based; conditions: human, cancer cell line Hep-G2, MTT, 0.19–100 μM
Assign IC50 at 72 h to each entry below.

In the examples that follow, each entry is paired with its recorded IC50 at 72 h.
molecule	IC50 at 72 h
CC[C@H](/C=C/[C@@H](C)[C@H]1CC[C@H]2[C@@H]3CC=C4C[C@@H](O)CC[C@]4(C)[C@H]3CC[C@]12C)C(C)C [Compound 14, stigmasta-5,22(E)-dien-3β-ol]	> 100 µM
C=C1CC23CCC4C(C)(C(=O)O)CCCC4(C)C2=CC(=O)C1C3 (centres unmarked) [Compound 18]	81.3 µM
C=C1CC23CCC4C(C)(C(=O)O)CCCC4(C)C2=CC(OC)C1C3 (centres unmarked) [Compound 1]	27.3 µM

Dear colleague, could you send me IC50 at 72 h for each of the items below? Thanks.
1. C[C@@]12CCC[C@@](C)(C(=O)O)[C@H]1CC[C@@]13C[C@@H](CC[C@H]12)[C@](C)(O)C3 [Compound 2, (16R)-hydroxy-ent-kauran-19-oic acid]
2. C=C1C[C@@]23CC[C@@H]4[C@](C)(C(=O)O)CCC[C@@]4(C)C2=CC[C@@H]1C3 [Compound 6, ent-kaur-9(11),16-dien-19-oic acid]

a:
1: > 100 µM; 2: > 100 µM
